ASSAY INFO: Aqueous solubility of API as a function of pH (shake flask method)
Format: physicochemical
MEASUREMENT PARAMETERS: aqueous HCl or NaOH solution, ionic strength 0.15 (KCl), aqueous buffer, thermodynamic from solid; pH 3.75; room temperature, 5 days

SMILES INPUT: Cn1c(Nc2ccc(C(F)(F)F)cc2)nc2cc(Oc3ccnc(-c4ncc(C(F)(F)F)[nH]4)c3)ccc21
solubility at 5 days, µg/mL: 1.9

* * *

ASSAY INFO: Hygroscopicity (sorption/desorption)
Assay type: physicochemical
ENDPOINT LABEL: Hygroscopicity from moisture sorption profiles (in words)

MOLECULE: CS(=O)(=O)O.Cn1c(Nc2ccc(C(F)(F)F)cc2)nc2cc(Oc3ccnc(-c4ncc(C(F)(F)F)[nH]4)c3)ccc21 [Mesylate]
RESULT: hygroscopic

MOLECULE: CCS(=O)(=O)O.Cn1c(Nc2ccc(C(F)(F)F)cc2)nc2cc(Oc3ccnc(-c4ncc(C(F)(F)F)[nH]4)c3)ccc21 [Esylate]
RESULT: hygroscopic

* * *

ASSAY INFO: Aqueous solubility of API as a function of pH (shake flask method)
Format: physicochemical
MEASUREMENT PARAMETERS: aqueous HCl or NaOH solution, ionic strength 0.15 (KCl), aqueous buffer, thermodynamic from solid; pH 5.78; room temperature, 5 days

COMPOUND: Cn1c(Nc2ccc(C(F)(F)F)cc2)nc2cc(Oc3ccnc(-c4ncc(C(F)(F)F)[nH]4)c3)ccc21 [API]
solubility at 5 days: 0.4 µg/mL

* * *

ASSAY INFO: Stability: degradation products (DP) and appearance (color) under stress conditions
Type: physicochemical
MEASUREMENT PARAMETERS: 0.1% solutions or suspensions, 1 week 80° C. or 50° C.; Methanol
Below, each of the molecules is paired with its reported DP value.

MOLECULE: Cn1c(Nc2ccc(C(F)(F)F)cc2)nc2cc(Oc3ccnc(-c4ncc(C(F)(F)F)[nH]4)c3)ccc21 [API]
DP (%): 0.6
--
MOLECULE: CS(=O)(=O)O.Cn1c(Nc2ccc(C(F)(F)F)cc2)nc2cc(Oc3ccnc(-c4ncc(C(F)(F)F)[nH]4)c3)ccc21 [Mesylate]
DP (%): 2.7
--
MOLECULE: CCS(=O)(=O)O.Cn1c(Nc2ccc(C(F)(F)F)cc2)nc2cc(Oc3ccnc(-c4ncc(C(F)(F)F)[nH]4)c3)ccc21 [Esylate]
DP (%): 2.5
--
MOLECULE: Cn1c(Nc2ccc(C(F)(F)F)cc2)nc2cc(Oc3ccnc(-c4ncc(C(F)(F)F)[nH]4)c3)ccc21.O=C(O)/C=C\C(=O)O [Maleate]
DP (%): 0.4
